- System: MIA PaCa-2 pancreatic cancer cells
- Assay text: Cell viability of MIA PaCa-2 pancreatic cancer cells exposed to Coenzyme Q10 alone or with fatty acid metabolism inhibitors
- Type: cell-based
- Condition notes: Coenzyme Q10 alone or with Etomoxir 100 μM, C75 10 μM or Trimetazidine 250 μM (FIG. 9)
- Description: Cell viability was next assessed in MIA PaCa-2 pancreatic cancer cells exposed to Coenzyme Q10 alone or in combination with the fatty acid metabolism inhibitors C75, etomoxir, trimetazidine, metformin, and the Stearoyl-CoA desaturase-1 (SCD-1) inhibitor A939572. […] SCD-1 is an endoplasmic reticulum enzyme that catalyzes the formation of the monounsaturated fatty acids oleic acid and palmitoleic acid from stearoyl-CoA and palmitoyl-CoA. […]
Measured parameter: pEC50
Give bare numbers, as −log10 of the molar value.

Given the compound COC1=C(OC)C(=O)C(C/C=C(\C)CC/C=C(\C)CC/C=C(\C)CC/C=C(\C)CC/C=C(\C)CC/C=C(\C)CC/C=C(\C)CC/C=C(\C)CC/C=C(\C)CCC=C(C)C)=C(C)C1=O , what is its reported pEC50?
3.55
